Test: Solubility in a solvent (qualitative)
Type: physicochemical
Conditions: dichloromethane (methylene chloride)
assay_metric: solubility in a solvent

molecule	value_reported
Cc1ccn[n]1[Pt-2]([n]1nccc1C)([n+]1[nH]ccc1C)[n+]1[nH]ccc1C.Cc1ccn[n]1[Pt-2]([n]1nccc1C)([n+]1[nH]ccc1C)[n+]1[nH]ccc1C [[{Pt(3-Mepz)2(3-MepzH)2}2]]	readily soluble
CC(C)(C)c1cc[n-]n1.CC(C)(C)c1cc[n-]n1.CC(C)(C)c1cc[nH]n1.CC(C)(C)c1cc[nH]n1.[Pt+2] [[Pt(3-^tBupz)2(3-^tBupzH)2]]	readily soluble
[Cl][Pt-2]([n]1nc(-c2ccccc2)cc1-c1ccccc1)([n+]1[nH]c(-c2ccccc2)cc1-c1ccccc1)[n+]1[nH]c(-c2ccccc2)cc1-c1ccccc1 [[PtCl(dppz)(dppzH)2]]	readily soluble
